Below, each entry is listed with its recorded MIC.
Tested on: C. glabrata
Experiment: Minimum inhibitory concentration broth double-dilution assay
Type: cell-based, Candida glabrata
Settings: #30 C. glabrata TGL00259; 24 h, 30 °C
*1 amine or outer side, *2 acyl side, *3 side chain or, on linkers, in order; H or OH if unused. Where a SMILES comes first, the peptide text is derived from it. Bridges are numbered along the chain shown (N, C = ends). [ ]: non-standard residue; d: D form. The star is where a group is joined. Orn(4R-OH,5R-OCH2CH2NMe3+) = C[N+](C)(C)CCO[C@@H](N[*:3])[C@H](O)C[C@H](N[*:1])C(=O)[*:2]; hTyr(3S-OH,4S-OH,3'-OSO3H) = N[C@H](C(=O)O)[C@H](O)[C@@H](O)c1ccc(O)c(OS(=O)(=O)O)c1; pTerphenylCO(4''-OnC5H11) = CCCCCOc1ccc(-c2ccc(-c3ccc(C(=O)*)cc3)cc2)cc1; Orn(4R-OH,5R-OH) = O=C([C@H](C[C@@H](O)[C@@H](O)N[*:3])N[*:1])[*:2]; hTyr(3S-OH,4S-OH) = N[C@H](C(=O)O)[C@H](O)[C@@H](O)c1ccc(O)cc1; Pro(3S-OH,4S-Me) = C[C@H]1CN[C@H](C(=O)O)[C@H]1O; X1 = CCCCCOc1ccc(-c2cc(-c3ccc(C(=O)*)cc3)no2)cc1; hTyr(3R-OH) = N[C@H](C(=O)O)[C@H](O)Cc1ccc(O)cc1; Gln(3R-OH) = NC(=O)C[C@@H](O)[C@H](N)C(=O)O; Hyp = O=C(O)[C@@H]1C[C@@H](O)CN1
The figure you give is taken to be in µg/mL; do not add the unit.

Here's what some known entries look like.
[
  {
    "compound": "CCCCCOc1ccc(-c2ccc(-c3ccc(C(=O)N[C@H]4C[C@@H](O)[C@@H](OCC[N+](C)(C)C)NC(=O)[C@@H]5[C@@H](O)[C@@H](C)CN5C(=O)[C@H]([C@@H](C)O)NC(=O)[C@H]([C@H](O)Cc5ccc(O)cc5)NC(=O)[C@@H]5C[C@@H](O)CN5C(=O)[C@H]([C@@H](C)O)NC4=O)cc3)cc2)cc1 [Compound 2, dehydroxy-RZF] ({pTerphenylCO(4''-OnC5H11)}-[Orn(4R-OH,5R-OCH2CH2NMe3+)]T[Hyp][hTyr(3R-OH)]T[Pro(3S-OH,4S-Me)]; lactam 1-C)",
    "attribute measured": "MIC",
    "reading": 8
  },
  {
    "compound": "CCCCCOc1ccc(-c2cc(-c3ccc(C(=O)N[C@H]4C[C@@H](O)[C@@H](O)NC(=O)[C@@H]5[C@@H](O)[C@@H](C)CN5C(=O)[C@H]([C@H](O)CC(N)=O)NC(=O)[C@H]([C@H](O)[C@@H](O)c5ccc(O)c(OS(=O)(=O)O)c5)NC(=O)[C@@H]5C[C@@H](O)CN5C(=O)[C@H]([C@@H](C)O)NC4=O)cc3)no2)cc1 [MCF, micafungin] (X1-[Orn(4R-OH,5R-OH)]T[Hyp][hTyr(3S-OH,4S-OH,3'-OSO3H)][Gln(3R-OH)][Pro(3S-OH,4S-Me)]; lactam 1-C)",
    "attribute measured": "MIC",
    "reading": 32
  },
  {
    "compound": "CCCCCOc1ccc(-c2ccc(-c3ccc(C(=O)N[C@H]4C[C@@H](O)[C@@H](O)NC(=O)[C@@H]5[C@@H](O)[C@@H](C)CN5C(=O)[C@H]([C@@H](C)O)NC(=O)[C@H]([C@H](O)Cc5ccc(O)cc5)NC(=O)[C@@H]5C[C@@H](O)CN5C(=O)[C@H]([C@@H](C)O)NC4=O)cc3)cc2)cc1 [Compound 1, dehydroxy-ANF] ({pTerphenylCO(4''-OnC5H11)}-[Orn(4R-OH,5R-OH)]T[Hyp][hTyr(3R-OH)]T[Pro(3S-OH,4S-Me)]; lactam 1-C)",
    "attribute measured": "MIC",
    "reading": 4
  }
]

Could you now look at the following compound, please?
INPUT: Need MIC of CCCCCOc1ccc(-c2ccc(-c3ccc(C(=O)N[C@H]4C[C@@H](O)[C@@H](O)NC(=O)[C@@H]5[C@@H](O)[C@@H](C)CN5C(=O)[C@H]([C@@H](C)O)NC(=O)[C@H]([C@H](O)[C@@H](O)c5ccc(O)cc5)NC(=O)[C@@H]5C[C@@H](O)CN5C(=O)[C@H]([C@@H](C)O)NC4=O)cc3)cc2)cc1 [ANF, anidulafungin] ({pTerphenylCO(4''-OnC5H11)}-[Orn(4R-OH,5R-OH)]T[Hyp][hTyr(3S-OH,4S-OH)]T[Pro(3S-OH,4S-Me)]; lactam 1-C) , thanks.
OUTPUT: 16
